system.under.test: T1, Antibody 178-09_His B.1.1.7 (27080) (SARS-CoV-2, UniProt P0DTC2 14-685)
T1 construct: domain: S1; also called TB178-9
assay.method.text: Carterra SPR
pKd: −log10 of the molar value.

binder | pKd
7-09 (VHH, also called 7-9) VHH: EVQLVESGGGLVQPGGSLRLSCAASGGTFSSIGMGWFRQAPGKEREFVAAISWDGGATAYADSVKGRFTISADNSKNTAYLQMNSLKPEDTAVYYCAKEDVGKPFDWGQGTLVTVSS | 7.63
7-32 (VHH) VHH: EVQLVESGGGLVQPGGSLRLSCAASGSTFSVNAMGWFRQAPGKEREFVAGVTRGGYTNYADSVKGRFTISADNSKNTAYLQMNSLKPEDTAVYYCAADGVPEYSDYASGPVWGQGTLVTVSS | 7.20
